System: EKVX NSCLC
Endpoint: GI50

CCN(CC)C(=S)SSC1CCCCC1 | 30.5 µM
CCOC(=O)/C=C/c1ccc(C(=O)OCC)[nH]1 | 9.89 µM
ClCCn1cnc2c(SCc3ccccc3)ncnc21 | 18.3 µM

Now, please, on to the next compound.
What measured GI50 goes with CCOC(=O)/C(C1=CC(=O)C(=O)c2ccccc21)=C(/C)NCc1ccccc1 ?
2.33 µM

----------
Test system: HT29 colon
Endpoint: GI50

O=c1c(OC/C(=N/O)c2ccccc2)c(-c2ccccc2)oc2ccccc12 | 13.7 µM
CC(C)(C)C([O-])=C1C(=O)c2ccccc2C1=O.CC(C)(C)C([O-])=C1C(=O)c2ccccc2C1=O.CC[O-].CC[O-].[Ti+4] | 32.9 µM
CCCCS(=N)(=O)CC[C@H](N)C(=O)O (some centres undefined) | > 10000 µM

Look up GI50 for this compound: CC/C=C\C[C@H](O)C/C=C1/C(=O)C=C[C@@H]1C/C=C\CCCC(N)=O
1.89 µM

// same read-out, input: O=[N+]([O-])/C=C\c1ccc2c(c1)OCO2
2.07 µM

Similarly, CC1(C)C(=O)/C(=C\c2ccco2)C[C@]2(C)[C@H]3CC=C4[C@@H]5C[C@](C)(C(=O)O)CC[C@]5(C)CC[C@@]4(C)[C@]3(C)CC[C@@H]12 ?
11.7 µM

Then what about the compound OCC1OC(N2C=C(c3nc4ccccc4s3)C3C=CC=CC32)C(O)C1O (centres undefined) ?
9.52 µM

Param item: CC1=CC[C@@H]2C(C)(C)[C@@H](O)CC[C@@]2(C)[C@@H]1COc1ccc2ccc(=O)oc2c1
9.83 µM

// next record CCC(=O)N1C/C(=C/c2ccc(OC)cc2)C(=O)/C(=C/c2ccc(OC)cc2)C1
1.18 µM

----------
Below, each entry is listed with its recorded TGI.
System: M19-MEL melanoma
Measurement Notes: NCI tumour cell line growth inhibition, 48 h

Use the examples below as a reference point.
O=c1oc2c3ccc4ccccc4c3n(Cc3nc4ccccc4[nH]3)c2c2ccccc12 | > 100 µM
Cn1c(=O)c2c(nc3n2CCC(=O)N3)n(C)c1=O | > 100 µM
Cc1ccc(-n2c(C)nc3c2C(=O)c2ccccc2C3=O)cc1 | 25.7 µM
CC[C@@]1(OC(=O)CCC(=O)O)C(=O)OCc2c1cc1n(c2=O)Cc2cc3ccccc3nc2-1 | 1.69 µM
Nc1nc(N)c2ncn(CC(CO)CC(c3ccccc3)P(=O)(O)O)c2n1 (centres undefined) | > 100 µM
CCOC(=O)/C=C(/CN1C(=O)c2ccccc2C1=O)c1ccccc1 | > 100 µM
CCc1cccc(C)c1NC(=O)CC1Sc2ccccc2NC1=O (centres undefined) | > 100 µM
Cc1c(C(=O)CC(=O)C(=O)NC2C3CC4CC(C3)CC2C4)[n+](=O)c2ccccc2n1[O-] (centres undefined) | > 100 µM
CCCCCCCCCCCC(=O)C1=C(O)C(O)CCC1=O (centres undefined) | 44.6 µM
c1c[nH]c(Cc2ncc(Cc3cnc[nH]3)[nH]2)n1 | 55.8 µM

Can you look up the measured TGI of CC1=C(N2CC2)C(=O)c2nc3n(c2C1=O)CCC3O (centres undefined) for me?
3.57 µM

Likewise for COC(=O)C12C3C4C1C1C2C3C41I (centres undefined) ?
> 100 µM

Also COC(=O)/C(=N/NC(C)(C)C)C(C(=O)C=C(C)C)C(=O)C(=O)Nc1ccc(Cl)cc1C (centres undefined) ?
> 100 µM

Repeat with c1cncc(C2c3[nH]c4ccccc4c3CCN2CCN2CCCCC2)c1 (centres undefined)
> 100 µM

----------
Test system: HL-60(TB) leukemia
Measurement Notes: NCI tumour cell line growth inhibition, 48 h
Heads up, the class ranges for TGI are bucket 1 = under 7 µM, bucket 2 = from 7 µM up to 40 µM, bucket 3 = 40 µM and over

CC1(C)OC2C(=O)OC(COCc3ccccc3)C2O1 (stereo not drawn) | bucket 3
COC(=O)C(Cc1ccccc1)NC(=O)CNC(=O)CSc1nnc(COc2ccc(Cl)cc2)n1-c1ccccc1 (stereo not drawn) | bucket 2
CC(SC1=CC(=O)c2c(O)ccc(O)c2C1=O)C(=O)O (stereo not drawn) | bucket 3

# classify by TGI band: ClCCn1cnc2c(SCc3ccccc3)ncnc21
bucket 3

O=C(N/N=C/c1ccc(F)cc1)c1[nH]c2ccc(I)cc2c1-c1ccccc1 , same question.
bucket 1

----------
Tested on: A549 NSCLC
Measurement Notes: NCI tumour cell line growth inhibition, 48 h
Endpoint: TGI

// worked examples, TGI included
COc1cccc(/C=C/C2=NN(c3cccc(S(=O)(=O)O)c3)C3(C2)SCC(=O)N3c2nc3ccccc3s2)c1 (stereo unspecified) | > 100 µM
CC1CC[C@]2(C(=O)O)CCC3(C)C(=C2[C@H]1C)C=CC1[C@@]2(C)CC[C@H](O)C(C)(C)C2CC[C@]13C (stereo partly specified) | 62.6 µM
CC1(C)N=C(N)N=C(N)N1c1cccc(CSc2ccccc2)c1 | > 100 µM
Cc1ccc(-n2c(C)nc3c2C(=O)c2ccccc2C3=O)cc1 | > 100 µM
O=C1/C(=C/c2cccs2)N=C(c2ccccc2)N1C1Nc2cc3c(cc2S1)NC(N1C(=O)/C(=C/c2cccs2)N=C1c1ccccc1)S3 (stereo unspecified) | > 100 µM
CC1(C)OC2C(=O)OC(COCc3ccccc3)C2O1 (stereo unspecified) | > 100 µM
Cc1ccc(N2C(=O)C(Cl)=C(Nc3cccc(O)c3)C2=O)cc1Cl | 29.7 µM
CCOC(=O)/C(=C\c1ccc(CO)o1)P(=O)(OCC)OCC | > 100 µM
Fc1cccc2nc(-c3ccccc3)cc(OCc3ccccc3)c12 | > 100 µM
O=C(c1ccco1)N(C(=S)N1CCN(c2ccccc2)CC1)c1ccccc1 | > 100 µM

Report TGI for COc1ccc(N=Cc2ccc(N(CCC#N)CCC#N)cc2)cc1 please.
> 100 µM

One more compound: CCOC(OC1=C(C#N)CCC1)C(CC)[Se]c1ccccc1 (stereo unspecified)
> 100 µM

Please give the result for O=S1(=O)c2ccccc2N2CCCc3cc(Cl)cc1c32 too.
> 100 µM

Queued: Cc1ccc(S(=O)(=O)ON/N=C2/C3OC3[C@@H]3CCCC[C@H]23)cc1 (stereo partly specified)
> 100 µM

Consider next the compound O=C(O)C(Cc1ccc(O)c([N+](=O)[O-])c1)N1C(=O)c2ccccc2C1=O (stereo unspecified) in the same way.
> 100 µM

Consider next the compound COC(=O)C(Cc1ccccc1)NC(=O)CNC(=O)CSc1nnc(COc2ccc(Cl)cc2)n1-c1ccccc1 (stereo unspecified) in the same way.
34.5 µM

What do you have for COC(=O)CC1C2CC3C(C2=O)C13 (stereo unspecified) ?
> 100 µM

Record: CC1=CC[C@@H]2C(C)(C)[C@@H](O)CC[C@@]2(C)[C@@H]1COc1ccc2ccc(=O)oc2c1
22.8 µM

Can you handle c1cc(-c2sc(-c3ccncc3)c(-c3ccncc3)c2-c2ccncc2)ccn1 next?
45.8 µM

And what about the compound O=C1CC(O)c2c(Cl)sc(Cl)c21 (stereo unspecified) ?
36.2 µM

Entry to check: CCCCCC(C)C[C@H]1CO[C@H](c2ccc[nH]2)N[C@H]1C(=O)OC (stereo partly specified)
> 100 µM

----------
Tested on: COLO 205 colon
Measurement Notes: NCI tumour cell line growth inhibition, 48 h
Examples of molecules with documented TGI follow.
Just the number please, in µM, no unit attached.

// below: answered molecules
NS(=O)(=O)c1ccc(/C=C/c2cccc(O)c2)cc1 | 45.9
CC/C=C\C[C@H](O)C/C=C1/C(=O)C=C[C@@H]1C/C=C\CCCC(N)=O | 4.72
CC1=C(N2CC2)C(=O)c2nc3n(c2C1=O)CCC3O (stereo not given) | 1.33
CC(C)(C)C([O-])=C1C(=O)c2ccccc2C1=O.CC(C)(C)C([O-])=C1C(=O)c2ccccc2C1=O.CC[O-].CC[O-].[Ti+4] | 44.7
CC1(C)N=C(N)N=C(N)N1c1cccc(CSc2ccccc2)c1 | 29.1
COc1ccc(N=C/C=C/Nc2ccc(OC)cc2)cc1 | 16.3

Consider the molecule CCCCCc1c(CCCC)c(=O)[nH]c2cc(CNCC(OC)OC)ccc12 and give its measured TGI.
6.24

And what about the molecule Cc1nn(-c2ccccc2)c(C)c1/C=N/NC(=O)c1sc(=S)n(-c2ccccc2)c1N ?
3.55

----------
Let's look at some molecules and their measured log10 of TGI.
Tested on: BT-549 breast
Measurement Notes: NCI tumour cell line growth inhibition, 48 h
All values: log10 TGI [µM].

The following molecules have reported results that may help.
NC(N)=N/N=C/c1c(-c2cc(Cl)sc2Cl)nc2n1CCS2 | 1.24
CCN(CC)CCNc1ccc(N=Nc2ccc(S(N)(=O)=O)cc2)c2ccccc12 | 1.53
CCc1ccc(C2=C(O)C(=O)C(c3ccc(CC)cc3)=C(O)C2=O)cc1 | 0.75
O=Nc1c2cccnc2n2nnc3ccc(Cl)cc3c12 | 1.09
Nc1cc(CO)cc(Nc2c3ccccc3nc3occc23)c1 | 1.91
c1ccc(N=NNNc2ccc(-c3nc4ccccc4[nH]3)cc2)cc1 | 1.89

Next:
Look at this molecule and give its reported log10 of TGI. O=[N+]([O-])/C=C\c1ccc2c(c1)OCO2
0.68
